# procedure-summary: CCTE_Shafer_MEA_dev_inter_network_spike_interval_mean: CCTE's Neural Network Formation Assay for Mean Inter-network Spike Interval, Shafer Lab (AID 2284047);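 for AC50: potency for a decrease in mean inter-network spike interval below DMSO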
Calls of active or inactive are those of the source. Rule for the calls: active = hit-call score of the fitted dose curve at least 0.9, where 1 is the maximum; inactive = score below 0.9.
reported-metric: AC50

Examples with their reported AC50 follow.
The reported AC50 of the compound c1ccc2cc3c4ccccc4c4ccccc4c3cc2c1 was inactive

For reference, reported AC50 for [Cl-].[Cl-].[NH2-].[NH2-].[Pt+4] stands at inactive

# compound NC(N)=Nc1nc(CSCCC(N)=NS(N)(=O)=O)cs1 ; its AC50 = inactive

AC50 reported for this compound COc1ccc2cc3[n+](cc2c1OC)CCc1cc2c(cc1-3)OCO2 : 236 nM (active)

Lab note: c1cc2ccc3ccc4ccc5cccc6c(c1)c2c3c4c56 gave AC50 of inactive

Cc1c(O)cccc1C(=O)N[C@@H](CSc1ccccc1)[C@H](O)CN1C[C@H]2CCCC[C@H]2C[C@H]1C(=O)NC(C)(C)C has a reported AC50 of 1090 nM (active)

New cases:
GET /value?item= CC(C)(C)NCC(O)c1cc(O)cc(O)c1 (configuration not stated) &field=AC50 returns inactive

====

# measured-target: Cellular tumor antigen p53 (Homo sapiens) (UniProt P04637)
# Sequence (P04637 whole entry, looked up): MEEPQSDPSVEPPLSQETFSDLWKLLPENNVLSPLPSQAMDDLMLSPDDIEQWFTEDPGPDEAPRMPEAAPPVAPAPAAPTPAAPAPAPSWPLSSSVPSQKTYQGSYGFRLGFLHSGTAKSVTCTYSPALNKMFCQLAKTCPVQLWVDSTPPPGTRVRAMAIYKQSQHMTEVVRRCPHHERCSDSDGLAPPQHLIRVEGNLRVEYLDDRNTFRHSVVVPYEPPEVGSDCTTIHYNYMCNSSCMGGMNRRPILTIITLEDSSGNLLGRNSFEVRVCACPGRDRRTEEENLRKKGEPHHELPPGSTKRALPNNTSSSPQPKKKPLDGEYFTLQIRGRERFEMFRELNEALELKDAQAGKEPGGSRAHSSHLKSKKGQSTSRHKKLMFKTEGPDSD
# procedure-summary: TOX21_p53_BLA_p4_ratio: Tox21 HCT-116 p53 Agonism Beta-lactamase Assay, Ratio, Phase 4 (AID 2283601)
Results filed as inconclusive are left out. The source made the active and inactive calls. How the source made its calls: active means hit-call score of the fitted dose curve at least 0.9, where 1 is the maximum; inconclusive means response in the unintended direction; inactive means score below 0.9.
Hi! Could you answer with just one of these? active, inactive

Solved cases below.
I'd appreciate the recorded outcome for COc1cc([C@@H]2c3cc4c(cc3C(O[C@@H]3O[C@@H]5COC(c6cccs6)O[C@H]5[C@H](O)[C@H]3O)C3COC(=O)[C@@H]32)OCO4)cc(OC)c1O (stereo partly drawn) from this test.
active

Recorded call for Cc1c(C(=O)NCCO)[n+](=O)c2ccccc2n1[O-] ?
inactive

Lab log entry: CCCc1ccc(C(=O)O)cc1 — outcome as called in the assay?
inactive

Which outcome was entered for the molecule CO/N=C(\C(=O)N[C@@H]1C(=O)N2C(C(=O)OCOC(=O)C(C)(C)C)=C(/C=C\c3scnc3C)CS[C@H]12)c1csc(N)n1 in this test?
inactive

Give the logged outcome of this assay for the following molecule: CC(=O)CC(c1ccc([N+](=O)[O-])cc1)c1c(O)c2ccccc2oc1=O (stereo not drawn)
inactive

---
Assay outcome for Cc1cc(C)c(NC(=O)CN(CC(=O)O)CC(=O)O)c(C)c1Br : what was it?
inactive

Look up the recorded call for CNCC(O)c1ccc(OC(=O)C(C)(C)C)c(OC(=O)C(C)(C)C)c1 (stereo not drawn) in this test.
inactive

Just curious, what result did Nc1ccc(N=Nc2ccccc2)c(N)c1 get here?
inactive

Lab log entry: C=CC1CO1 (stereo not drawn) — outcome as called in the assay?
inactive

I would be grateful if you could indicate the recorded call for C[C@]12CCC(=O)C=C1CC[C@@H]1[C@@H]2CC[C@@]2(C)[C@H]1CC[C@]2(O)C(=O)CO .
inactive

Call for entry CC(C)COC(=O)c1ccc(O)cc1 :
inactive

Please state the recorded outcome for this molecule: OCC(CBr)(CBr)CBr
inactive

Tell me the assay call for C=C(C)C(=O)OCCCCCC please.
inactive

====

Collected AC50 values appear next to each entry.
# System: SERPINA7 (gene 6906)
# procedure-summary: CCTE_GLTED_hTBG: CCTE's human Thyroxine-binding Globulin (TBG) Inhibition Assay, Great Lakes Toxicology and Ecology Division (GLTED) Lab (AID 2284343);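 note: active chemicals lower fluorescence versus DMSO baseline by displacing probe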
The source made the active and inactive calls. The calls were made as follows: active = hit-call score of the fitted dose curve at least 0.9, where 1 is the maximum; inconclusive = response in the unintended direction; inactive = score below 0.9.

Reference set (4 entries):
GET /values?item= O=C(Oc1ccccc1)c1ccccc1 &system= SERPINA7 (gene 6906) returns AC50: 8.47 µM (active)

# value of AC50, SERPINA7 (gene 6906), item O=C(c1ccccc1)c1ccccc1O = 17.9 µM (active)

SERPINA7 (gene 6906) data for Oc1cccc2ccccc12 ; its AC50: 4.58 µM (active)

Record CCCCCC[C@@H](O)C/C=C\CCCCCCCC(=O)O ; system SERPINA7 (gene 6906); AC50 = 41.4 µM (active)

--- query ---
Bench note, SERPINA7 (gene 6906): Cc1cc(O)cc(C)c1Cl , AC50 reads 22.3 µM (active)

====

# Read-out: Pselectin, SELP (gene 6403)
# procedure-summary: BSK_4H_Pselectin: BioMAP Diversity Plus: 4H Assay for Pselectin Biomarker Activity (AID 2283026)
# conditions: primary human endothelial cells (HUVEC); actives raise or lower the signal
Calls of active or inactive are those of the source. How the source made its calls: active means hit-call score of the fitted dose curve at least 0.9, where 1 is the maximum; inactive means score below 0.9.
Your reply should match one of these outcome classes. TRUE for active, FALSE for inactive

What did this assay record as the result for C1CN(CCOCCN2CCOCC2)CCO1 ?
FALSE

Kindly provide the recorded test outcome for the following compound: COc1cc(CNC(=O)CCCC/C=C/C(C)C)ccc1O
FALSE

What is the recorded call for this compound in the test? Cc1c(C(N)=O)cc([N+](=O)[O-])cc1[N+](=O)[O-]
FALSE

Identify the outcome logged in this assay for the compound shown: COC(=O)/C=C\C(=O)OC
FALSE

Each compound tested received a call. Report the one for Oc1cccc2ccccc12 .
FALSE

Test call for this compound, please: CCCCCCCCCCC1CO1 (configuration not stated)
TRUE

Attention now shifts to the item below.
Query: recorded result category for CCC[Si](OC(C)=O)(OC(C)=O)OC(C)=O in this test
FALSE

====

# procedure-summary: CCTE_Shafer_MEA_acute_network_burst_percentage: CCTE's Neural Acute Assay for Percentage of Network Bursts, Shafer Lab (AID 2284022);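 note: curves fitted for loss so actives lower network burst percentage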
Calls of active or inactive are those of the source. The calls were made as follows: active = hit-call score of the fitted dose curve at least 0.9, where 1 is the maximum; inactive = score below 0.9.
reported-metric: AC50

Record excerpt, results attached:
According to the records, this molecule Cc1c(C(N)=O)cc([N+](=O)[O-])cc1[N+](=O)[O-] displays AC50 of inactive

In plain terms, C1CN(CCOCCN2CCOCC2)CCO1 has a documented AC50 of inactive

Measured AC50 of O=[N+]([O-])c1cc(S(=O)(=O)Nc2ccccc2)ccc1Nc1ccccc1 : inactive

Reported AC50 for COc1ccccc1Oc1c(NS(=O)(=O)c2ccc(C(C)(C)C)cc2)nc(-c2ncccn2)nc1OCCO was inactive

Short answer for CN(C)C(=O)C(CCN1CCC(O)(c2ccc(Cl)cc2)CC1)(c1ccccc1)c1ccccc1 : AC50 was inactive

Others:
Consider COc1cc(CNC(=O)CCCC/C=C/C(C)C)ccc1O . Its measured AC50 is inactive

The molecule identified as NC(N)=Nc1nc(CSCCC(N)=NS(N)(=O)=O)cs1 registered its AC50 at inactive

What the record says about CN(C)CCC(c1ccc(Cl)cc1)c1ccccn1 (stereo not drawn) : AC50 is 22.8 µM (active)

====

# procedure-summary: TOX21_p53_BLA_p2_viability: Viability Assessment in the Tox21 HCT-116 p53 Agonism Beta-lactamase Assay, Phase 2 (AID 2283591);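 note: compound exposure lasted 16 h at 37 °C; actives lower the ATP signal meaning cytotoxicity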
Results filed as inconclusive are left out. Calls of active or inactive are those of the source. How the source made its calls: active means hit-call score of the fitted dose curve at least 0.9, where 1 is the maximum; inconclusive means response in the unintended direction; inactive means score below 0.9.
reported-metric: AC50

// solved cases for AC50 follow
The measured AC50 associated with CCC(=O)OCC(=O)[C@@]1(OC(=O)CC)[C@@H](C)C[C@H]2[C@@H]3CCC4=CC(=O)C=C[C@]4(C)[C@@]3(F)[C@@H](O)C[C@@]21C reads inactive

AC50 reading for CC(C)=CCOc1ccc(/C=C/C(=O)c2ccc(OCC=C(C)C)cc2OCC(=O)O)cc1 : 8 µM (active)

Reported AC50 for Cc1onc(-c2ccccc2)c1C(=O)N[C@@H]1C(=O)N2[C@@H]1SC(C)(C)[C@@H]2C(=O)O was inactive

Reported AC50 for O=c1[nH]c2ccccc2n1CCCN1CCN(C(c2ccccc2)c2ccccc2)CC1 was inactive

Record CCC(=O)O[C@]1(C(=O)CCl)[C@@H](C)C[C@H]2[C@@H]3C[C@H](F)C4=CC(=O)C=C[C@]4(C)[C@@]3(F)[C@@H](O)C[C@@]21C . Reported AC50: inactive

Next:
GET /value?item= CN(C)CCOC1=Cc2ccccc2Sc2ccc(Cl)cc21 &field=AC50 returns inactive

Reported AC50 for O=C(O)CNC(=O)c1ccc([N+](=O)[O-])cc1 was inactive

Memo: CCCCCCCCCOC(=O)c1ccc(O)cc1 , reported AC50: 53.3 µM (active)

Recorded AC50 (compound CN1CCN2c3ccccc3Cc3ccccc3C2C1 (stereo not given) ): 38.9 µM (active)

Entry CCO — recorded AC50 = inactive

====

# measured-target: Thyroid hormone receptor alpha (Rattus norvegicus) + Thyroid hormone receptor beta (Rattus norvegicus) (UniProt P18113+P63059)
# procedure-summary: TOX21_TR_LUC_GH3_Antagonist_Followup: Tox21 GH3 Thyroid Hormone Receptor Antagonism Luciferase Follow-Up Assay (AID 2283942)
Inconclusive results are not listed. Active and inactive are the calls of the source. The calls were made as follows: active = hit-call score of the fitted dose curve at least 0.9, where 1 is the maximum; inconclusive = response in the unintended direction; inactive = score below 0.9.
Choose one outcome from this list and give only that: active, inactive

Could you check what this test reported for Cc1oc(C)c(C(=O)Nc2ccccc2)c1C ?
inactive

Dear colleague, could you share the recorded outcome for O=C1C(=O)c2ncccc2-c2cccnc21 when you have a moment?
inactive

// return assay outcome for O=c1[nH]c(=O)n([C@H]2C[C@H](O)[C@@H](CO)O2)cc1F
inactive

Further cases:
Hello, I am checking results. What call was entered for Cc1cc(Nc2ccccc2C(=O)O)ccc1Cl ?
inactive

Check the results log: what was the call for Nc1ccc2cc3ccc(N)cc3nc2c1 ?
active
